// data source = the METLIN SMRT retention time set (Domingo-Almenara et al. 2019)

# runDescription: gradient 5% acetonitrile 3 min, to 50% in 2 min, to 85% in 15 min, held 3 min, 100 µL/min
# testConditions: column: Zorbax Extend-C18 2.1 x 50 mm; eluents: water / acetonitrile, 0.1% formic acid
Assign classes using reported RP-LC retention time values and the ranges low end = under 700 s, middle = from 700 s up to 900 s, high end = 900 s and over, please.

Previously resolved entries follow.
* Cc1cccc(N2CC(C(=O)NC3CCCC3)CC2=O)c1 (stereo not given) | middle
* CN(C)CCNC(=O)c1cccc(Nc2c(-c3ccc(Cl)cc3)nc3cnccn23)c1 | low end
* Cc1cc(N2CCN(c3ccccn3)CC2)n2nc(C(F)(F)F)c(-c3ccccc3)c2n1 | middle
* CCN1CCCc2cc(C(=O)NCc3ccc(OC)cc3OC)sc21 | high end
* Cc1ccc(Cn2cc(-c3nc(-c4ccc(Cl)cc4)no3)ccc2=O)cc1 | high end
* O=C1Nc2ccccc2SC1C(=O)N1CCC(C(=O)N2CC=C(c3ccccc3)CC2)CC1 (stereo not given) | middle
* CC(=O)c1ccc(NC(=O)CCSc2ccc(F)cc2)cc1 | middle
* Cc1cc(C(=O)NC(C)C2CC3CCC2C3)c2c(C)noc2n1 (stereo not given) | high end

Q: Each compound maps to one class by RP-LC retention time. Which class for COc1ccc(Cl)cc1NC(=O)c1cn(C)c2ncccc12 ?
Result: high end

Q: Each compound maps to one class by RP-LC retention time. Which class for CCOc1ccc(-c2ccc(N3CCN(C(=O)Cc4noc5ccccc45)CC3)nn2)cc1 ?
Result: low end

Q: Each compound maps to one class by RP-LC retention time. Which class for O=C(NC1CCN(C(=O)C2CC2)C1)C1CCC1 (stereo not given) ?
Result: low end

Q: Each compound maps to one class by RP-LC retention time. Which class for CSc1nc(N2CCCC2)c2cnn(CCNC(=O)CSc3nnnn3C)c2n1 ?
Result: low end

Q: Each compound maps to one class by RP-LC retention time. Which class for CCOC(=O)c1c(C)[nH]c(C(=O)N2CCCC(C(=O)NCc3ccco3)C2)c1C (stereo not given) ?
Result: middle

Q: Each compound maps to one class by RP-LC retention time. Which class for CC(C)(C)NC(=O)CSc1nc(-c2cccs2)cc(C(F)(F)F)c1C#N ?
Result: high end

----------
Please go through the items and note down their RP-LC retention time.
# runDescription: gradient 5% acetonitrile 3 min, to 50% in 2 min, to 85% in 15 min, held 3 min, 100 µL/min
# testConditions: column: Zorbax Extend-C18 2.1 x 50 mm; eluents: water / acetonitrile, 0.1% formic acid
Give bare numbers, in s.

Answered examples (6):
- O=C(NC1CCCCCC1)c1nnc(-c2ccc(S(=O)(=O)N3CCCCC3)cc2)o1: 1100
- COC(=O)c1cc(S(=O)(=O)N2CCCC2C(=O)N2CCN(c3cccc(Cl)c3)CC2)cn1C (centres undefined): 929
- Cc1nc(-c2cc(S(=O)(=O)N3CCN(c4cccc(Cl)c4)CC3)c(C)s2)cs1: 1270
- COc1cc(-c2nc3ccc(Cl)cn3c2Nc2ccc(C)cc2)ccc1O: 730
- Cc1ccc(CNC(=O)C2CCc3nc(N4CCOCC4)ncc3C2)cc1 (centres undefined): 723
- CC(=O)N1CCc2cc(CNC(=O)c3ccnn3C)ccc21: 622

Give measured RP-LC retention time for every item shown.
1. O=C(NCc1nc2ccccc2n1CCCCOc1ccccc1Cl)c1ccco1
2. CCCc1cc(C2CCCN2C(=O)Nc2ccc(OC)c(OC)c2)no1 (centres undefined)
3. COc1ccccc1-c1[nH]ncc1CN1C[C@@H]2CCN(S(C)(=O)=O)C[C@]2(CF)C1

Result:
660
778
583

----------
# runDescription: gradient 5% acetonitrile 3 min, to 50% in 2 min, to 85% in 15 min, held 3 min, 100 µL/min
# testConditions: column: Zorbax Extend-C18 2.1 x 50 mm; eluents: water / acetonitrile, 0.1% formic acid
metricName: RP-LC retention time
Phrase the answer as number then unit, nothing more needed.

• COc1ccc(OCc2nc(-c3ccc(-c4csc(C)n4)cc3)no2)cc1 = 1170 s
• Cc1cccc2nc(-c3ccc(N(C)C)cc3)c(Nc3ccc4c(c3)OCO4)n12 = 747 s
• COC(=O)c1cccc(Nc2c(-c3cccc(Br)c3)nc3cnccn23)c1 = 918 s
• CCOc1nc2ccccc2nc1N1CCCC(C(=O)N2CCOCC2)C1 (stereo not given) = 983 s
• CCc1cccc(C)c1NC(=O)COc1cc(C)nc(N2CCN(c3ccccc3)CC2)n1 = 946 s
• O=C(Cn1cc(S(=O)(=O)Cc2cccc(Cl)c2)c2ccccc21)N1CCOCC1 = 774 s

Give measured RP-LC retention time for every item shown.
1. CC(C)CCNC(=O)CCC(=O)N1CC2CCCN2c2ccccc21 (stereo not given)
2. COc1cccc(-c2nc(Cc3nc(-c4ccccc4)oc3C)no2)c1
3. CCn1nccc1-c1cccc(-c2noc(-c3cccs3)n2)c1
4. COc1ccc(NC(=O)N2CCCC2c2nc(-c3ccccc3OC)no2)cc1OC (stereo not given)

Result:
["902 s", "1100 s", "1130 s", "941 s"]

----------
# runDescription: gradient 5% acetonitrile 3 min, to 50% in 2 min, to 85% in 15 min, held 3 min, 100 µL/min
# testConditions: column: Zorbax Extend-C18 2.1 x 50 mm; eluents: water / acetonitrile, 0.1% formic acid
metricName: RP-LC retention time

• Cc1cccc(-c2noc(Cn3c(=O)n(-c4ccccc4C)c(=O)c4sccc43)n2)c1 = 1070 s
• COc1ccc(Cl)cc1NC(=O)N1CCCC(c2nnc(-c3ccccc3F)s2)C1 (stereo not given) = 1040 s
• COc1ccc(-c2noc(CN3C(=O)COc4cc(Cl)ccc43)n2)cc1 = 1060 s
• Cc1ccc(Nc2cc(-n3ccnc3)ncn2)cc1C = 671 s

response.value for COc1ccc(Cl)cc1C(=O)N1CCN(c2ccc(-c3nc(C)c(C)s3)cn2)CC1 (field: RP-LC retention time) = 956 s

----------
# runDescription: gradient 5% acetonitrile 3 min, to 50% in 2 min, to 85% in 15 min, held 3 min, 100 µL/min
# testConditions: column: Zorbax Extend-C18 2.1 x 50 mm; eluents: water / acetonitrile, 0.1% formic acid
Rule for this label: 1 (yes) means RP-LC retention time is less than 900 s; 0 (no) means RP-LC retention time is at least 900 s.

Previously resolved entries follow.
- Cc1ccc(C2NC(=O)N(CC(=O)Nc3ccccc3F)C3=C2C(=O)OC3)cc1 (centres undefined): 1 (yes)
- Cc1ccc2c(c1)N(S(C)(=O)=O)CCC(C(=O)NCc1ccccc1Cl)O2 (centres undefined): 0 (no)
- Cc1cccc(N(C)C(=O)Cn2nc3nc(N4CCCC4)ccn3c2=O)c1: 1 (yes)
- O=C(Nc1ccc2c(c1)OCO2)C1CCCN(S(=O)(=O)Cc2ccc(Cl)cc2)C1 (centres undefined): 0 (no)
- Cc1ccc(S(=O)(=O)Nc2ccc(C)n(CC(=O)O)c2=O)cc1: 1 (yes)

Q: Could you please tell me whether RP-LC retention time recorded for COCCc1nncn1C1CCN(S(=O)(=O)c2cccc(C(F)(F)F)c2)CC1 is less than 900 s?
Result: 1 (yes)

Q: Could you please tell me whether RP-LC retention time recorded for CCC(Sc1nnc2n1CCN2c1ccc(OC)cc1)C(=O)OC (centres undefined) is less than 900 s?
Result: 1 (yes)

Q: Could you please tell me whether RP-LC retention time recorded for O=C1COc2cc(S(=O)(=O)N3CCCC3C(=O)NCc3ccccc3)c(Cl)cc2N1 (centres undefined) is less than 900 s?
Result: 1 (yes)

----------
# runDescription: gradient 5% acetonitrile 3 min, to 50% in 2 min, to 85% in 15 min, held 3 min, 100 µL/min
# testConditions: column: Zorbax Extend-C18 2.1 x 50 mm; eluents: water / acetonitrile, 0.1% formic acid
Please go through the items and note down their RP-LC retention time.
Numbers only, in s.

Answered examples (2):
• CC(c1ccccc1)c1nc(-c2ccc3c(c2)nnn3CCN2CCOCC2)no1 (stereo not given) = 714
• COCC(C)(O)CNC(=O)Cc1cccc(C)c1 (stereo not given) = 621

Give measured RP-LC retention time for every item shown.
1. CC(C)c1ccc(NC(=O)C2CCN(S(=O)(=O)c3ccc4c(c3)sc(=O)n4C)CC2)cc1
2. CC(C)n1cnc2cc(CNC(=O)c3ccccc3F)ccc21
3. O=C(Nc1sc2c(c1C(c1cccnc1)N1CCN(c3ccccn3)CC1)CCCC2)c1ccco1 (stereo not given)
4. O=C(NCCc1cccs1)C1CCN(C(=O)c2ncn3c2COC(c2ccccc2)C3)CC1 (stereo not given)
5. O=C(Nc1cccnc1)C1CCCN(S(=O)(=O)c2c[nH]c(C(=O)N3CCCC3)c2)C1 (stereo not given)
6. CCOC(=O)Cc1c(C(=O)OCC)nnc2c(-c3ccccc3)c(C)nn12
7. COCCC1CCN(C(=O)CN(C)C(=O)c2ccc3cc[nH]c3c2)CC1
8. COCCn1cc(CCNC(=O)Nc2ccc(C)c(F)c2)c2cccnc21

Result:
[993, 606, 676, 738, 594, 1080, 686, 772]
